Assay comment: Tanguay_ZF_120hpf_SWIM_legacy: (Legacy) Oregon State University Tanguay Lab 120 Hour Post-fertilization zebrafish Assay for Swim Bladder Malformation (AID 2283654);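 further: swim bladder malformation in each larva scored yes or no under brightfield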
Inconclusive results are not listed. Calls of active or inactive are those of the source. How the source made its calls: active means hit-call score of the fitted dose curve at least 0.9, where 1 is the maximum; inconclusive means response in the unintended direction; inactive means score below 0.9.
I would appreciate it if you answered using one of these outcomes: active, inactive

Please review the following examples before continuing.
CCCCC(CC)COC(=O)c1ccccc1C(=O)O (stereo not drawn)
inactive
OB(O)O
inactive

Please share the test call associated with `c1ccc2[nH]c(-c3cscn3)nc2c1` .
inactive

Please share the test call associated with `CCCN(CCC)c1c([N+](=O)[O-])cc(C(F)(F)F)c(N)c1[N+](=O)[O-]` .
inactive

Please share the test call associated with `COCCO` .
inactive

Please share the test call associated with CC1(C)C(C=C(Cl)Cl)C1C(=O)OCc1cccc(Oc2ccccc2)c1 (stereo not drawn) .
inactive

Please share the test call associated with `CCCOC(=O)c1ccc(C(=O)OCCC)nc1` .
active

Please share the test call associated with `Oc1ccc(C(c2ccc(O)cc2)C(Cl)(Cl)Cl)cc1` .
active

Please share the test call associated with `S=C([S-])NCCNC(=S)[S-].[Mn+2]` .
inactive

Please share the test call associated with `CCN(CC)C(=O)c1cccc(C)c1` .
inactive

Please share the test call associated with CCCCOC(=O)C(C)Oc1ccc(Oc2ccc(C(F)(F)F)cn2)cc1 (stereo not drawn) .
inactive

Please share the test call associated with `COC(=O)CSc1cc(N=c2sc(=O)n3n2CCCC3)c(F)cc1Cl` .
inactive

Please share the test call associated with `O=C(O)C1(C(=O)Nc2ccc(Cl)cc2Cl)CC1` .
inactive
